TEST_SYSTEM: SARS-COV-2 RBD extracellular domain expressed with a C-terminal myc-myc-hexahistidine tag (SARS-COV-2 RBD-mmH) (SARS-CoV-2)
EXPERIMENT_SUMMARY: SPR Biacore, mAb captured on anti-hFc, RBD-mmH analyte, 37 C
Quick reference for Kd among some binders
Answer as a quantity: numeral, then unit.

Answered cases to consult:
{"BINDER": "mAb14294 (antibody, V domains shown) VH: EVQLVESGGGLVQPGGSLRLSCAASGFTFSNHWMDWVRQAPGKGLVWVSRINSDGSSTDYADSVRGRFTMSRDNAKNTLYLQMSSLRAEDTAVYYCAREGMIFGAVIIPGWYFDLWGRGALVTVSS VL: EIVLTQSPGTLSLSPGERATLSCRASQSVSSSQLAWYQQKPGQAPRLLIYGASSRATGIPDRFSGSGSGTDFTLTISRLEPEDFAVYYCQQYDSFGQGTKLEIKR", "Kd": "0.984 nM"}
{"BINDER": "mAb14284 (antibody, V domains shown) VH: QITLKESGPTLVKPTQTLTLTCTFSGFSFSTSGVGVGWIRQPPGKTLEWLALIYWDDDKRYSPSLKSRLTITKDTSKNQVVLTMTNMDPVDTATYFCAHHGIPTIFGYWGQGALVTVSS VL: QSALTQPASVSGSPGQSITISCTGTSSDLGVFNYVSWYQQHPGKAPKLMIYEVTNRPSGVSNRFSGSKSGNTASLTISGLQAEDEADYYCSSYTTSSTVFGGGTKLTVLG", "Kd": "0.94 nM"}

Q) Recorded Kd for mAb15151 (antibody, V domains shown) VH: QVQLVESGGGVVQPGRSLRLSCAASGFVFNSYGMHWVRQAPGKGLEWVAVLWYEGSKNYYADSVKGRFTISRDNSKNTLYLQMNSLRAEDTAVYYCARHGSGSFFGYYLDYWGQGTLVTVSS VL: DIQMTQSPSSLSASVGDRVTITCRASHNINDFLNWYQQKPGKAPRLLIYAASSLQSGVPSRFSGSGSGTDFTLTISSLQPEDFATYYCQESYTTPPTFGQGTKLEIKR , please?
A) 24.6 nM
